The entries below come with measured Mean % WT Binding values attached.
- tgt: human CD33 S359A (human, UniProt P20138 18-364)
- Sequence (P20138 18-364 S359A limits assumed): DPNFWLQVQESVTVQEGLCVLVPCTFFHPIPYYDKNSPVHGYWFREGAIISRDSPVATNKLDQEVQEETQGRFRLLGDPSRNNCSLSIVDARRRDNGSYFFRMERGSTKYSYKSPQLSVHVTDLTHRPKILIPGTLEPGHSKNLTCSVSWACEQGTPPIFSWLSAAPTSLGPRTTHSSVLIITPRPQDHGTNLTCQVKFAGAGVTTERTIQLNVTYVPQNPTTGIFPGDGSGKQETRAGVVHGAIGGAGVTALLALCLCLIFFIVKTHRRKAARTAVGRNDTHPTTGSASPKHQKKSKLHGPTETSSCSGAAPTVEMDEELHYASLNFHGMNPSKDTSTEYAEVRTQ
- assay details: flow cytometry, alanine scan

Refmab #4 (antibody, V domains shown, The alanine scan used IgG or Fab) VH: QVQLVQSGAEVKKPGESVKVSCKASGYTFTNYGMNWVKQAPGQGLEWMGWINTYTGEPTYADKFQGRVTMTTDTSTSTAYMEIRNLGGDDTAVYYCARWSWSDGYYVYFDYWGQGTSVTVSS VL: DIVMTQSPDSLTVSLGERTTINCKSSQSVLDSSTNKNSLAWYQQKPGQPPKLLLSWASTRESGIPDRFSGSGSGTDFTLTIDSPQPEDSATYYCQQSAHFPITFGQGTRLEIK :: 82.7 % of WT
Refmab #2 (antibody, V domains shown, The alanine scan used IgG or Fab) VH: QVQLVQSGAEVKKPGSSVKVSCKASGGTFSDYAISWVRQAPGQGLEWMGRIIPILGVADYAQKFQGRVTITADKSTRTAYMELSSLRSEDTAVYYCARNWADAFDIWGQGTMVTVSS VL: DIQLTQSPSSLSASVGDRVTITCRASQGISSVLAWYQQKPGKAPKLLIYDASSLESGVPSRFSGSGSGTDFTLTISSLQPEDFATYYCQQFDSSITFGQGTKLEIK :: 102 % of WT
Refmab #1 (antibody, V domains shown, The alanine scan used IgG or Fab; also called hP67.6) VH: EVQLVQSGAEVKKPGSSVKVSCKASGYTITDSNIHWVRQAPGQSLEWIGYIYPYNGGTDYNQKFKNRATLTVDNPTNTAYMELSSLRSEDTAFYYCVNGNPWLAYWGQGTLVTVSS VL: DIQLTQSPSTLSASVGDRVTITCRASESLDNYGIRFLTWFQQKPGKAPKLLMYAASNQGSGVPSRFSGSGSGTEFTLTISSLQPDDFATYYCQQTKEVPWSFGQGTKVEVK :: 95.8 % of WT

Now turn to the next binder.
Please look up its Mean % WT Binding: Refmab #3 (antibody, V domains shown, The alanine scan used IgG or Fab) VH: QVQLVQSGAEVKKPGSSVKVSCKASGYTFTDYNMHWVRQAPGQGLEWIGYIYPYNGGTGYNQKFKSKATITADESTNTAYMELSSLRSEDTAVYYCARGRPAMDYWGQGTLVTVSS VL: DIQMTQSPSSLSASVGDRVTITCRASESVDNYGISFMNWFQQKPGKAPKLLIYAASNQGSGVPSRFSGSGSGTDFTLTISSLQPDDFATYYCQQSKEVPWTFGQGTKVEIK 135 % of WT
